Measured IC50 values are reported for all entries that follow.
Assay target: UniProt Q08881
Sequence (Q08881 whole entry): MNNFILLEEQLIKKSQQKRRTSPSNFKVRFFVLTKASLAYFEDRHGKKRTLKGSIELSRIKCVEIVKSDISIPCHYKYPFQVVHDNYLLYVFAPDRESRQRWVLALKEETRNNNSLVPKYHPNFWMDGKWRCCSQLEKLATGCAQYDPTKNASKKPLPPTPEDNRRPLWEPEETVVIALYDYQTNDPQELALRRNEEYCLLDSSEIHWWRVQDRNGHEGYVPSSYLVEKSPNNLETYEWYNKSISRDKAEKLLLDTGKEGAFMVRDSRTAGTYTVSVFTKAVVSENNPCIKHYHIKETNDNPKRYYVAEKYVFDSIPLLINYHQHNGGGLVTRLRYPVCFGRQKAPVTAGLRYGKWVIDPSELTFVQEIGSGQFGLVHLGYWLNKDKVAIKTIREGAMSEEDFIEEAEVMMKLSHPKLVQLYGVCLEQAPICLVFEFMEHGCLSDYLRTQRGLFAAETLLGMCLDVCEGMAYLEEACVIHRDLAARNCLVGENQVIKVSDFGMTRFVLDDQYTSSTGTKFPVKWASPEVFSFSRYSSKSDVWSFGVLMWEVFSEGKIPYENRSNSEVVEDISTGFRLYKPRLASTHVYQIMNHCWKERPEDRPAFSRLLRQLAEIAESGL
Test protocol: Inhibition of a panel of kinases, in vitro HotSpot kinase assay: ITK
Assay type: biochemical
Test context: Table 13, A compounds; 1 μM ATP

- Mol smiles: "C[C@@H]1[C@H](NC(=O)c2ccc(C3CC3)cc2F)CCCN1c1cnc(C(N)=O)c(Nc2nc3c(s2)CN(C)CC3)n1"
  Meas value: "> 10000 nM"
- Mol smiles: "C[C@@H]1[C@H](NC(=O)c2ccc(C3CC3)cc2F)CCCN1c1cnc(C(N)=O)c(Nc2ccc(N3CCN(C4CCCC4)CC3)cc2)n1"
  Meas value: "100 to 1000 nM"
- Mol smiles: "C[C@@H]1[C@H](NC(=O)c2ccc(C3CC3)cn2)CCCN1c1cnc(C(N)=O)c(Nc2ccc(N3CCN(C)CC3)cc2)n1"
  Meas value: "100 to 1000 nM"
- Mol smiles: "C[C@@H]1[C@H](NC(=O)c2ccc(C(C)(C)C)cc2)CCCN1c1cnc(C(N)=O)c(Nc2ccc(N3CCN(C)CC3)cc2)n1"
  Meas value: "100 to 1000 nM"
- Mol smiles: "Cn1cc(Nc2nc(N3C[C@H](NC(=O)c4ccc(C5CC5)cc4)CC(F)(F)C3)cnc2C(N)=O)cn1"
  Meas value: "1000 to 10000 nM"
- Mol smiles: "CN1CCN(c2ccc(Nc3nc(N4CCC[C@@H](n5ccc6cc(C7CC7)ccc6c5=O)C4)cnc3C(N)=O)cc2)CC1"
  Meas value: "100 to 1000 nM"
- Mol smiles: "C[C@@H]1[C@H](NC(=O)c2ccc(C3CC3)cc2)CCCN1c1cnc(C(N)=O)c(Nc2cnn(C3CCN(C)CC3)c2)n1"
  Meas value: "100 to 1000 nM"
- Mol smiles: "CN(C)C(=O)N[C@@H]1CCCN(c2cnc(C(N)=O)c(Nc3ccc(C4(C)CCN(C5CCCC5)CC4)cc3)n2)[C@@H]1CO"
  Meas value: "1000 to 10000 nM"
- Mol smiles: "C[C@@H]1[C@H](NC(=O)c2ccc(C3CC3)cc2F)CCCN1c1cnc(C(N)=O)c(Nc2ccc(S(=O)(=O)N3CCCC3)cc2)n1"
  Meas value: "> 10000 nM"
- Mol smiles: "C[C@@H]1[C@H](NC(=O)c2ccc(C3CC3)cc2)CCCN1c1cnc(C(N)=O)c(Nc2cnn(C)c2)n1"
  Meas value: "1000 to 10000 nM"

Recorded result, "C[C@@H]1[C@H](NC(=O)c2ccc(C3CC3)cc2Cl)CCCN1c1cnc(C(N)=O)c(Nc2ccc(N3CCN(C)CC3)cc2)n1" , IC50: 100 to 1000 nM

Recorded result, "C[C@@H]1[C@H](NC(=O)c2ccc(C3CC3)cc2F)CCCN1c1cnc(C(N)=O)c(Nc2cnn(C)c2)c1" , IC50: 1000 to 10000 nM

Recorded result, "C[C@@H]1[C@H](NC(=O)N(C)C)CCCN1c1cnc(C(N)=O)c(Nc2ccc(C(=O)N3CCN(C)CC3)cc2)n1" , IC50: 1000 to 10000 nM
